- Method: chemical genetic growth profiling, strain panel (AID 1159580);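 note: tested at 20 µM; growth read once vehicle control cultures reached saturation at 30 °C; lower values mean less growth of the strain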
- Condition details: S. cerevisiae deletion strains, growth OD, locus YNL183C, strain NPR1, stronger effect = lower value
Hit rate of the full screen: of about 5,500 compounds, about 2,000 (36%) were called active. About 18% were inconclusive and are not listed. This is one part of the list.
Rule: normalized growth below 0.9 gives MET. Equal to or above 0.9 gives NOT MET.

• S=C(NNc1ccccc1)Nc1cc(Cl)ccc1Cl = NOT MET
• C[C@]12C=CC(=O)C=C1CCC1C3C[C@@H](O)[C@](O)(C(=O)CO)[C@@]3(C)C[C@H](O)[C@@]12F (stereo partly specified) = NOT MET
• CC1CCC2(OC1)OC1CC3C4CCC5C[C@@H](O)CCC5(C)C4=CCC3(C)C1[C@@H]2C (stereo partly specified) = NOT MET
• O=C(Nc1ccc(Cl)cc1)O/N=C\c1ccn(-c2ccccc2)n1 = MET
• NCC(CC(=O)O)c1ccc(Cl)cc1 (stereo unspecified) = NOT MET
• S=C(Nc1cc(Cl)c(Cl)cc1Cl)Nc1ccccc1Br = MET
• C[C@H](CCC(=O)O)[C@H]1CCC2C3C(CC[C@@]21C)[C@@]1(C)CC[C@@H](O)C[C@H]1C[C@H]3O (stereo partly specified) = MET
• C/C(=N/Nc1ccccc1)c1cc(Cl)cc(Cl)c1O = MET
• CC(=O)Nc1nnc(S(N)(=O)=O)s1 = NOT MET
• NCCOB(c1ccccc1)c1ccccc1 = MET
• NC(N)=O = NOT MET
